B1: library; numbered along this chain (parent)
chain: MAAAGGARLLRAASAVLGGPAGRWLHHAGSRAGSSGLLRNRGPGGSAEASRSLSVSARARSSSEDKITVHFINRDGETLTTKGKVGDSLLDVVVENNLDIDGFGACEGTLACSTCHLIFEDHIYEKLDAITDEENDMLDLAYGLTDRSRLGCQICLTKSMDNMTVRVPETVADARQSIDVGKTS

Variants of: B1
Assay: scaled log2 fold change in cell abundance, elesclomol vs control (0 = silent mean, 1 = nonsense mean) (scaled log2 ratio); higher = higher viability under elesclomol (loss of FDX1 cuproptosis function);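 further: variant abundance is its share of total variant reads in each endpoint sample, from next-generation sequencing of the integrated ORF PCR-amplified out of genomic DNA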
Settings: with HEK293T FDX1 KO; elesclomol 40 nM; glucose 10 mM; 11 days
measured-metric: scaled log2 fold change

Task: So what's the measured scaled log2 fold change for this one? "M160N"
Result: -0.0466

Task: So what's the measured scaled log2 fold change for this one? "R11S"
Result: -0.404

Task: So what's the measured scaled log2 fold change for this one? "D136I"
Result: -0.019

Task: So what's the measured scaled log2 fold change for this one? "N135V"
Result: 0.0375

Task: So what's the measured scaled log2 fold change for this one? "M137H"
Result: -0.384

Task: So what's the measured scaled log2 fold change for this one? "M160E"
Result: -0.299

Task: So what's the measured scaled log2 fold change for this one? "G44V"
Result: -0.478

Task: So what's the measured scaled log2 fold change for this one? "N162C"
Result: 0.0594

Task: So what's the measured scaled log2 fold change for this one? "R74S"
Result: 0.881

Task: So what's the measured scaled log2 fold change for this one? "L140R"
Result: -0.397

Task: So what's the measured scaled log2 fold change for this one? "E133F"
Result: -0.56

Task: So what's the measured scaled log2 fold change for this one? "L140I"
Result: 0.225

Task: So what's the measured scaled log2 fold change for this one? "L140Y"
Result: -0.373

Task: So what's the measured scaled log2 fold change for this one? "G104A"
Result: -1.55

Task: So what's the measured scaled log2 fold change for this one? "H26I"
Result: 0.477

Task: So what's the measured scaled log2 fold change for this one? "I72D"
Result: -0.132

Task: So what's the measured scaled log2 fold change for this one? "V94Y"
Result: 0.515

Task: So what's the measured scaled log2 fold change for this one? "S159I"
Result: 0.0583

Task: So what's the measured scaled log2 fold change for this one? "K158A"
Result: 0.138

Task: So what's the measured scaled log2 fold change for this one? "D179V"
Result: 0.172

Task: So what's the measured scaled log2 fold change for this one? "G36D"
Result: 0.737

Task: So what's the measured scaled log2 fold change for this one? "S88E"
Result: 0.37

Task: So what's the measured scaled log2 fold change for this one? "R39Q"
Result: 0.178

Task: So what's the measured scaled log2 fold change for this one? "G42K"
Result: 0.00685

Task: So what's the measured scaled log2 fold change for this one? "A59G"
Result: -0.916

Task: So what's the measured scaled log2 fold change for this one? "A172E"
Result: 0.926

Task: So what's the measured scaled log2 fold change for this one? "K82I"
Result: 0.419

Task: So what's the measured scaled log2 fold change for this one? "D179M"
Result: -0.494

Task: So what's the measured scaled log2 fold change for this one? "N97P"
Result: -0.674

Task: So what's the measured scaled log2 fold change for this one? "L9M"
Result: 0.772

Task: So what's the measured scaled log2 fold change for this one? "A172Q"
Result: 0.591

Task: So what's the measured scaled log2 fold change for this one? "A12D"
Result: 0.265

Task: So what's the measured scaled log2 fold change for this one? "G181C"
Result: -0.501

Task: So what's the measured scaled log2 fold change for this one? "R175V"
Result: -0.0442

Task: So what's the measured scaled log2 fold change for this one? "D87L"
Result: -0.549

Task: So what's the measured scaled log2 fold change for this one? "A13I"
Result: 0.147

Task: So what's the measured scaled log2 fold change for this one? "L90T"
Result: -0.404

Task: So what's the measured scaled log2 fold change for this one? "S35A"
Result: 0.327

Task: So what's the measured scaled log2 fold change for this one? "G45H"
Result: 0.865

Task: So what's the measured scaled log2 fold change for this one? "E120C"
Result: -0.059

Task: So what's the measured scaled log2 fold change for this one? "H70P"
Result: 0.983

Task: So what's the measured scaled log2 fold change for this one? "K84L"
Result: -0.439

Task: So what's the measured scaled log2 fold change for this one? "C106P"
Result: 0.899

Task: So what's the measured scaled log2 fold change for this one? "N40R"
Result: 0.0477

Task: So what's the measured scaled log2 fold change for this one? "P20Q"
Result: 1.13

Task: So what's the measured scaled log2 fold change for this one? "G44A"
Result: 2.06

Task: So what's the measured scaled log2 fold change for this one? "Q176N"
Result: 1.21

Task: So what's the measured scaled log2 fold change for this one? "V167Q"
Result: 1.05

Task: So what's the measured scaled log2 fold change for this one? "K158G"
Result: -0.842

Task: So what's the measured scaled log2 fold change for this one? "G102A"
Result: -0.812

Task: So what's the measured scaled log2 fold change for this one? "A111V"
Result: -0.469

Task: So what's the measured scaled log2 fold change for this one? "R8C"
Result: 1.05

Task: So what's the measured scaled log2 fold change for this one? "H27F"
Result: 0.363

Task: So what's the measured scaled log2 fold change for this one? "I178P"
Result: 0.399

Task: So what's the measured scaled log2 fold change for this one? "M160T"
Result: 0.674

Task: So what's the measured scaled log2 fold change for this one? "M137K"
Result: 1.33

Task: So what's the measured scaled log2 fold change for this one? "V69N"
Result: 0.921

Task: So what's the measured scaled log2 fold change for this one? "A3D"
Result: 0.572

Task: So what's the measured scaled log2 fold change for this one? "R147Y"
Result: 0.243

Task: So what's the measured scaled log2 fold change for this one? "E120T"
Result: -0.0827

Task: So what's the measured scaled log2 fold change for this one? "G5F"
Result: 0.695
